The values you see were collected from patent US5114961A.

ASSAY SYSTEM: PAF specific receptor binding site (human platelet membranes) (Homo sapiens)
Construct: platelet membranes at a drug concentration of 3 nM; from tissue; host or cells: human platelet plasma membranes
Sequence (P25105 whole entry): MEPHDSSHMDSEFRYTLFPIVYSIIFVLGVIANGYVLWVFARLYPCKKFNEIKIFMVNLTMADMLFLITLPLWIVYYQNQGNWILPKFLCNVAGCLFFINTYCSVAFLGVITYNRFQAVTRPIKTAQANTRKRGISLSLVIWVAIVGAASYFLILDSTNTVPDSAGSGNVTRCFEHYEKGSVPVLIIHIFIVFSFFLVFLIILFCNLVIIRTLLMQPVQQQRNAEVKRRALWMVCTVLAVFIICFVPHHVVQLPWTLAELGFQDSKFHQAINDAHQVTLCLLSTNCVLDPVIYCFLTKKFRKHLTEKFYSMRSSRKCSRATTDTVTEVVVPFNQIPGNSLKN
PROTOCOL NOTES: Inhibition of [3H]N-methylcarbamoyl-PAF binding to human platelet membranes
SETTINGS: drug concentration of 3 nM, trans configuration
Please provide measured inhibition at 0.003 µM for the entries that follow.
Reply with just the number (in %).

According to the records, this compound CCCOc1c(OCCCSc2ncc[nH]2)cc([C@H]2CC[C@H](c3cc(OC)c(OC)c(OC)c3)O2)cc1S(=O)(=O)CC(C)=O (relative stereo) displays inhibition at 0.003 µM of 45

According to the records, this compound CCCOc1c(OCCN2CCNCC2)cc([C@@H]2CC[C@@H](c3cc(OC)c(OC)c(OC)c3)O2)cc1S(=O)(=O)CC(C)=O (relative stereo) displays inhibition at 0.003 µM of 34

According to the records, this compound CCCS(=O)(=O)c1cc([C@@H]2CC[C@@H](c3cc(OC)c(OC)c(OC)c3)O2)cc(OC)c1OCCSc1nc[nH]n1 (relative stereo) displays inhibition at 0.003 µM of 23

According to the records, this compound CCCOc1c(OCCCSc2nc[nH]n2)cc([C@@H]2CC[C@@H](c3cc(OC)c(OC)c(OC)c3)O2)cc1S(=O)(=O)CC(C)O (relative stereo) displays inhibition at 0.003 µM of 61

According to the records, this compound CCCOc1c(OCCCCn2ccnc2)cc([C@H]2CC[C@H](c3cc(OC)c(OC)c(OC)c3)O2)cc1S(=O)(=O)CC(C)O (relative stereo) displays inhibition at 0.003 µM of 43

According to the records, this compound CCCOc1c(OCCN2CCOCC2)cc([C@@H]2CC[C@@H](c3cc(OC)c(OC)c(OC)c3)O2)cc1S(=O)(=O)CC(C)=O (relative stereo) displays inhibition at 0.003 µM of 25

###

Please provide measured inhibition at 0.003 µM for the entries that follow.
ASSAY SYSTEM: PAF specific receptor binding site (human platelet membranes) (Homo sapiens)
Construct: platelet membranes at a drug concentration of 3 nM; from tissue; host or cells: human platelet plasma membranes
PROTOCOL NOTES: Inhibition of [3H]N-methylcarbamoyl-PAF binding to human platelet membranes
SETTINGS: drug concentration of 3 nM, trans configuration
Reply with just the number (in %).

According to the records, this compound CCCOc1c(OCCCN2CCOCC2)cc([C@@H]2CC[C@@H](c3cc(OC)c(OC)c(OC)c3)O2)cc1S(=O)(=O)CC(C)O (relative stereo) displays inhibition at 0.003 µM of 18

According to the records, this compound CCCOc1c(OCCCSc2nc[nH]n2)cc([C@@H]2CC[C@@H](c3cc(OC)c(OC)c(OC)c3)O2)cc1S(=O)(=O)CC(C)=O (relative stereo) displays inhibition at 0.003 µM of 69

According to the records, this compound CCCOc1c(OCCCn2ccnc2)cc([C@H]2CC[C@H](c3cc(OC)c(OC)c(OC)c3)O2)cc1S(=O)(=O)CC(C)O (relative stereo) displays inhibition at 0.003 µM of 41

###

ASSAY SYSTEM: PAF specific receptor binding site (human platelet membranes) (Homo sapiens)
Construct: platelet membranes at a drug concentration of 3 nM; from tissue; host or cells: human platelet plasma membranes
PROTOCOL NOTES: Inhibition of [3H]N-methylcarbamoyl-PAF binding to human platelet membranes
SETTINGS: drug concentration of 3 nM, trans configuration
Returns one of class 1 or class 0; class 1 when inhibition at 0.003 µM is >= 60%.

**Q:** Record CCCS(=O)(=O)c1cc([C@H]2CC[C@H](c3cc(OC)c(OC)c(OC)c3)O2)cc(OC)c1OCCSc1ccncc1 (relative stereo) ; criterion: inhibition at 0.003 µM no lower than 60%. Met?
**A:** class 1

**Q:** Record CCCOc1c(OCCSc2ncc[nH]2)cc([C@H]2CC[C@H](c3cc(OC)c(OC)c(OC)c3)O2)cc1S(=O)(=O)CC(C)=O (relative stereo) ; criterion: inhibition at 0.003 µM no lower than 60%. Met?
**A:** class 0

**Q:** Record CCCOc1c(OCCN2CCCC2)cc([C@@H]2CC[C@@H](c3cc(OC)c(OC)c(OC)c3)O2)cc1S(=O)(=O)CC(C)=O (relative stereo) ; criterion: inhibition at 0.003 µM no lower than 60%. Met?
**A:** class 0

**Q:** Record CCCOc1c(OCCCN2CCOCC2)cc([C@@H]2CC[C@@H](c3cc(OC)c(OC)c(OC)c3)O2)cc1S(=O)(=O)CCC(C)O (relative stereo) ; criterion: inhibition at 0.003 µM no lower than 60%. Met?
**A:** class 0

**Q:** Record CCCOc1c(OCCn2ccnc2)cc([C@@H]2CC[C@@H](c3cc(OC)c(OC)c(OC)c3)O2)cc1S(=O)(=O)CC(C)O (relative stereo) ; criterion: inhibition at 0.003 µM no lower than 60%. Met?
**A:** class 0

**Q:** Record CCCS(=O)(=O)c1cc([C@H]2CC[C@H](c3cc(OC)c(OC)c(OC)c3)O2)cc(OC)c1OCCSc1ccc(N(C)C)cc1 (relative stereo) ; criterion: inhibition at 0.003 µM no lower than 60%. Met?
**A:** class 1

**Q:** Record `CCCOc1c(OCCCN2CCOCC2)cc([C@@H]2CC[C@@H](c3cc(OC)c(OC)c(OC)c3)O2)cc1S(=O)(=O)CC(C)=O` ; criterion: inhibition at 0.003 µM no lower than 60%. Met?
**A:** class 0

**Q:** Record CCCOc1c(OCCCCN2CCOCC2)cc([C@@H]2CC[C@@H](c3cc(OC)c(OC)c(OC)c3)O2)cc1S(=O)(=O)CC(C)=O (relative stereo) ; criterion: inhibition at 0.003 µM no lower than 60%. Met?
**A:** class 0

**Q:** Record CCCS(=O)(=O)c1cc([C@@H]2CC[C@@H](c3cc(OC)c(OC)c(OC)c3)O2)cc(OCCCN2CCOCC2)c1OCCCCCCO (relative stereo) ; criterion: inhibition at 0.003 µM no lower than 60%. Met?
**A:** class 0

**Q:** Record CCCOc1c(OCCCc2cccnc2)cc([C@H]2CC[C@H](c3cc(OC)c(OC)c(OC)c3)O2)cc1S(=O)(=O)CC(C)=O (relative stereo) ; criterion: inhibition at 0.003 µM no lower than 60%. Met?
**A:** class 1

**Q:** Record CCCOc1c(OCCN2CCOCC2)cc([C@@H]2CC[C@@H](c3cc(OC)c(OC)c(OC)c3)O2)cc1S(=O)(=O)CC(C)O (relative stereo) ; criterion: inhibition at 0.003 µM no lower than 60%. Met?
**A:** class 0

**Q:** Record CCCOc1c(OCCN2CCCCC2)cc([C@H]2CC[C@H](c3cc(OC)c(OC)c(OC)c3)O2)cc1S(=O)(=O)CC(C)=O (relative stereo) ; criterion: inhibition at 0.003 µM no lower than 60%. Met?
**A:** class 0

**Q:** Record CCCOc1cc([C@@H]2CC[C@@H](c3cc(OC)c(OC)c(OC)c3)O2)cc(S(=O)(=O)CCN2CCOCC2)c1OCCC (relative stereo) ; criterion: inhibition at 0.003 µM no lower than 60%. Met?
**A:** class 0

**Q:** Record CCCS(=O)(=O)c1cc([C@@H]2CC[C@@H](c3cc(OC)c(OC)c(OC)c3)O2)cc(OC)c1OCCS(=O)(=O)c1ccccc1 (relative stereo) ; criterion: inhibition at 0.003 µM no lower than 60%. Met?
**A:** class 1

**Q:** Record CCCOc1c(OCCCN2CCCC2)cc([C@@H]2CC[C@@H](c3cc(OC)c(OC)c(OC)c3)O2)cc1S(=O)(=O)CC(C)=O (relative stereo) ; criterion: inhibition at 0.003 µM no lower than 60%. Met?
**A:** class 0

**Q:** Record CCCOc1c(OCCCSc2ncc[nH]2)cc([C@H]2CC[C@H](c3cc(OC)c(OC)c(OC)c3)O2)cc1S(=O)(=O)CC(C)O (relative stereo) ; criterion: inhibition at 0.003 µM no lower than 60%. Met?
**A:** class 0

**Q:** Record CCCS(=O)(=O)c1cc([C@H]2CC[C@H](c3cc(OC)c(OC)c(OC)c3)O2)cc(OC)c1OCCSc1ccc(C#N)cc1 (relative stereo) ; criterion: inhibition at 0.003 µM no lower than 60%. Met?
**A:** class 1

**Q:** Record CCCS(=O)(=O)c1cc([C@@H]2CC[C@@H](c3cc(OC)c(OC)c(OC)c3)O2)cc(OC)c1OCCSc1ccc(-c2nn[nH]n2)cc1 (relative stereo) ; criterion: inhibition at 0.003 µM no lower than 60%. Met?
**A:** class 0

**Q:** Record CCCOc1c(OCCSc2ncc[nH]2)cc([C@H]2CC[C@H](c3cc(OC)c(OC)c(OC)c3)O2)cc1S(=O)(=O)CC(C)O (relative stereo) ; criterion: inhibition at 0.003 µM no lower than 60%. Met?
**A:** class 0

**Q:** Record CCCOc1cc([C@@H]2CC[C@@H](c3cc(OC)c(OC)c(OC)c3)O2)cc(S(=O)(=O)CCN2CCCC2)c1OCCC (relative stereo) ; criterion: inhibition at 0.003 µM no lower than 60%. Met?
**A:** class 0

**Q:** Record CCCS(=O)(=O)c1cc([C@@H]2CC[C@@H](c3cc(OC)c(OC)c(OC)c3)O2)cc(OCCN2CCOCC2)c1OCCCCCCO (relative stereo) ; criterion: inhibition at 0.003 µM no lower than 60%. Met?
**A:** class 0

**Q:** Record CCCOc1c(OCCCN2CCOCC2)cc([C@@H]2CC[C@@H](c3cc(OC)c(OC)c(OC)c3)O2)cc1S(=O)(=O)CC(C)=O (relative stereo) ; criterion: inhibition at 0.003 µM no lower than 60%. Met?
**A:** class 0
